Entry source: patent US20030229005A1

Target: stromelysin 1 (UniProt P08254 100-477, limits assumed)
Sequence (P08254 100-477 limits assumed): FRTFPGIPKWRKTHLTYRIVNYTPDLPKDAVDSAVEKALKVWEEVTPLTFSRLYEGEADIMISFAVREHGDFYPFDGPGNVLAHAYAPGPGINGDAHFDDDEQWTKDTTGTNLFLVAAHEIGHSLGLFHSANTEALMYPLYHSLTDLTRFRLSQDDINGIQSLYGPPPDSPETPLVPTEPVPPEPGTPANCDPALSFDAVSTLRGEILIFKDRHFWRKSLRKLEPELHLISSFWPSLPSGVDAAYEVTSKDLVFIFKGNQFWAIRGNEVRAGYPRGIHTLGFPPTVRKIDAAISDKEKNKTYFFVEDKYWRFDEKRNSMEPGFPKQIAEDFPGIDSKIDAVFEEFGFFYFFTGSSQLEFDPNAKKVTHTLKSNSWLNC
Experiment: cell-based or functional assay
*1 amine or outer side, *2 acyl side, *3 side chain or, on linkers, in order; H or OH if unused. [ ]: non-standard residue; d: D form. The star is where a group is joined. Dnp = O=[N+]([O-])c1ccc(*)c([N+](=O)[O-])c1; C(Me) = CSC[C@H](N[*:1])C(=O)[*:2]
parameter: Selectivity v. Coll-3 (unitless)

[[record]]
binder = "Dnp-GPFGLKG-NH2 (SMILES CC(C)C[C@H](NC(=O)CNC(=O)[C@H](Cc1ccccc1)NC(=O)[C@@H]1CCCN1C(=O)CNc1ccc([N+](=O)[O-])cc1[N+](=O)[O-])C(=O)N[C@@H](CCCCN)C(=O)NCC(N)=O) [Dnp-GPFGLKG-NH2]"
numeric_value = 1380

[[record]]
binder = "Dnp-GPVNLHG[C(Me)]-NH2 (SMILES CSC[C@H](NC(=O)CNC(=O)[C@H](Cc1c[nH]cn1)NC(=O)[C@H](CC(C)C)NC(=O)[C@H](CC(N)=O)NC(=O)[C@@H](NC(=O)[C@@H]1CCCN1C(=O)CNc1ccc([N+](=O)[O-])cc1[N+](=O)[O-])C(C)C)C(N)=O) [Dnp-GPVNLHGC(Me)-NH2]"
numeric_value = 770

[[record]]
binder = "Dnp-GPYGMRA-NH2 (SMILES CSCC[C@H](NC(=O)CNC(=O)[C@H](Cc1ccc(O)cc1)NC(=O)[C@@H]1CCCN1C(=O)CNc1ccc([N+](=O)[O-])cc1[N+](=O)[O-])C(=O)N[C@@H](CCCNC(=N)N)C(=O)N[C@@H](C)C(N)=O) [Dnp-GPYGMRA-NH2]"
numeric_value = 404

[[record]]
binder = "Dnp-GPLPFHV[C(Me)]-NH2 (SMILES CSC[C@H](NC(=O)[C@@H](NC(=O)[C@H](Cc1c[nH]cn1)NC(=O)[C@H](Cc1ccccc1)NC(=O)[C@@H]1CCCN1C(=O)[C@H](CC(C)C)NC(=O)[C@@H]1CCCN1C(=O)CNc1ccc([N+](=O)[O-])cc1[N+](=O)[O-])C(C)C)C(N)=O) [Dnp-GPLPFHVC(Me)-NH2]"
numeric_value = 619

[[record]]
binder = "Dnp-PINLHG-NH2 (SMILES CC[C@H](C)[C@H](NC(=O)[C@@H]1CCCN1c1ccc([N+](=O)[O-])cc1[N+](=O)[O-])C(=O)N[C@@H](CC(N)=O)C(=O)N[C@@H](CC(C)C)C(=O)N[C@@H](Cc1c[nH]cn1)C(=O)NCC(N)=O) [Dnp-PINLHG-NH2]"
numeric_value = 824

[[record]]
binder = "Dnp-GPLQFRG-NH2 (SMILES CC(C)C[C@H](NC(=O)[C@@H]1CCCN1C(=O)CNc1ccc([N+](=O)[O-])cc1[N+](=O)[O-])C(=O)N[C@@H](CCC(N)=O)C(=O)N[C@@H](Cc1ccccc1)C(=O)N[C@@H](CCCNC(=N)N)C(=O)NCC(N)=O) [Dnp-GPLQFRG-NH2]"
numeric_value = 700

